As shown below, each of these molecules has a reported pIC50 value.
- Test target: human MC5R (hMC5R) (Homo sapiens, UniProt P33032)
- Construct: purchased Perkin Elmer RBXMC5M400UA
- Sequence (P33032 whole entry): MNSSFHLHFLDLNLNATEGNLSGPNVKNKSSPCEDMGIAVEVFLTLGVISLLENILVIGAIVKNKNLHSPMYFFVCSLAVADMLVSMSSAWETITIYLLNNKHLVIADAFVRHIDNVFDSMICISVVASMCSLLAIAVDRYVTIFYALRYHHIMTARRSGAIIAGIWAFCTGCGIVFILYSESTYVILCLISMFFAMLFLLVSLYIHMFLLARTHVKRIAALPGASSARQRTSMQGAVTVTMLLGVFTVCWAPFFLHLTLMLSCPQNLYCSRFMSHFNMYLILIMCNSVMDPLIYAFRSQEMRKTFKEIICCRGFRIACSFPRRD
- Assay explanation: Human MC5R radioligand binding assay (membranes, [125I] NDP-MSH displacement)
- Experimental parameters: hMC5R binding; tested as trifluoroacetate or hydrochloride salts, or free bases; read-out: MC5R radioligand IC50
pIC50: −log10 of the molar value.

{"Molecule": "CC[C@@H](CN1CC[C@@H](CNC(=O)c2ccc(Cl)c(Cl)c2)N[C@@H](CCN2CCCCC2)C1=O)C(C)C", "pIC50": "> 7.00"}
{"Molecule": "CCC(CC)CN1CC[C@@H](CNC(=O)/C=C/c2ccc(Cl)cc2)N[C@@H](CCN2CCCCC2)C1=O", "pIC50": "> 6.00"}
{"Molecule": "CC[C@H](CN1CCC(CNC(=O)c2ccc3cc(Cl)ccc3c2)NC(C2CCN(CC)CC2)C1=O)c1ccccc1 (some centres unmarked)", "pIC50": "> 7.00"}
{"Molecule": "CCC(CN1CC[C@@H](CNC(=O)c2ccc3cc(Cl)ccc3c2)N[C@@H](CCN)C1=O)c1ccsc1 (some centres unmarked)", "pIC50": "> 7.00"}
{"Molecule": "CC[C@H](CN1CC[C@@H](CNC(=O)c2ccc(Cl)c(Cl)c2)N[C@@H](CCN2CCC(F)(F)CC2)C1=O)c1ccccc1", "pIC50": "> 7.00"}
{"Molecule": "NCC[C@@H]1N[C@H](CNC(=O)c2cccc(C(F)(F)F)c2)CCN(CC(c2ccccc2)c2ccccc2)C1=O", "pIC50": "> 5.00"}
{"Molecule": "N=C(N)NCCC[C@@H]1N[C@H](CNC(=O)c2ccc3ccccc3c2)CCN(C[C@@H](NC(=O)C2CCC2)c2ccccc2)C1=O", "pIC50": "> 6.00"}
{"Molecule": "O=C(NC[C@@H]1CCN(CC(c2ccccc2)c2ccccc2)C(=O)[C@H](CCN2CCCCC2)N1)c1ccc2cc(Cl)ccc2c1", "pIC50": "> 8.00"}
{"Molecule": "NCC[C@@H]1N[C@H](CCNC(=O)c2ccc3ccccc3c2)CCN(CC(c2ccccc2)c2ccccc2)C1=O", "pIC50": "> 6.00"}
{"Molecule": "Cc1c(C(=O)NC[C@@H]2CCN(CC(c3ccccc3)c3ccccc3)C(=O)[C@H](CCCN)N2)cnn1-c1ccccc1", "pIC50": "> 5.00"}
{"Molecule": "CCCOC(=O)N[C@H](Cc1ccc2ccccc2c1)[C@@H]1CCN(CC(c2ccccc2)c2ccccc2)C(=O)[C@H](CCCNC(=N)N)N1", "pIC50": "> 5.00"}
{"Molecule": "CC[C@H](CN1CCC(CNC(=O)c2ccc3cc(Cl)ccc3c2)NC(C2CCN(CCC(C)C)CC2)C1=O)c1ccccc1 (some centres unmarked)", "pIC50": "> 7.00"}
{"Molecule": "O=C(NC[C@@H]1CCN(CC(c2ccccc2)c2ccccc2)C(=O)[C@H](CCN2CCCCC2)N1)c1ccc(C(F)(F)F)cc1", "pIC50": "> 7.00"}
{"Molecule": "CCC(CC)CN1CC[C@@H](CNC(=O)c2ccc3ccccc3c2)N[C@@H](CCCNC(=N)N)C1=O", "pIC50": "> 6.00"}
